For each of the molecules below, state its inhibition.
assayTarget: Protein deacetylase HDAC6 (Homo sapiens) (UniProt Q9UBN7)
Sequence (Q9UBN7 whole entry): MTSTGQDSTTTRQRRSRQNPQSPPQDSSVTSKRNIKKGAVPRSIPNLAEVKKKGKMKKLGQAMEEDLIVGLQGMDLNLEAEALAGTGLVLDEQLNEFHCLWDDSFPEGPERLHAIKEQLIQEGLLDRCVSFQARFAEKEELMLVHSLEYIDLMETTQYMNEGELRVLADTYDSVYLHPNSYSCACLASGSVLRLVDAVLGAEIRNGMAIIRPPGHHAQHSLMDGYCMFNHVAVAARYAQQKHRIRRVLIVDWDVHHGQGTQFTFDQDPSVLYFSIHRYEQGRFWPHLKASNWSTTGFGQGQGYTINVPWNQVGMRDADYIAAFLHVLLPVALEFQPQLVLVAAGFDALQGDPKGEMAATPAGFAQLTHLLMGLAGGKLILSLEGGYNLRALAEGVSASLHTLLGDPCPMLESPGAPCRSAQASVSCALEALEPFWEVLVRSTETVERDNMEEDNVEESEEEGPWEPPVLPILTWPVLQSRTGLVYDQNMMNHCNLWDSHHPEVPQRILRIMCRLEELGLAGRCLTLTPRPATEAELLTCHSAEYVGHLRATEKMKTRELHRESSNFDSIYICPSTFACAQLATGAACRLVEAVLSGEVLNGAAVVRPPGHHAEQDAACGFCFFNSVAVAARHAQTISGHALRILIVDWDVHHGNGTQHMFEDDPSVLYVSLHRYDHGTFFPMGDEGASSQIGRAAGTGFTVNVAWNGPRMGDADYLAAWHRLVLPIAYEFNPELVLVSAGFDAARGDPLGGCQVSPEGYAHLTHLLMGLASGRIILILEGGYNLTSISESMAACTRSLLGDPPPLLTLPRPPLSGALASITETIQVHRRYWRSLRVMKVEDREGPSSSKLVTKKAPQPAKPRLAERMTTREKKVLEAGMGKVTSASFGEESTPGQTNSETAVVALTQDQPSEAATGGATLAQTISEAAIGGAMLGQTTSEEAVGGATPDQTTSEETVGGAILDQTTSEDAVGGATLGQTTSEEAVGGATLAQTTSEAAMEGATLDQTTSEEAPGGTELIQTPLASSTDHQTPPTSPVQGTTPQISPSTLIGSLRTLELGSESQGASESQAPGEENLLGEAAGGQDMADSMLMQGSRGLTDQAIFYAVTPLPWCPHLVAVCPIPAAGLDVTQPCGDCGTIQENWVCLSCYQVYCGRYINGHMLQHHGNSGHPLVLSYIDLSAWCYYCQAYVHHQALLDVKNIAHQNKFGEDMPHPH
experimentNotes: Inhibition of full length HDAC6 (unknown origin) extracted from Sf9 insect cells at 10 uM preincubated for 60 mins followed by substrate addition and measured after 20 mins by luminescence based HDAC-GloTM I/II assay relative to control
Type: cell-free
testConditions: time 80.0 min
Answers are plain numbers, in %.

Sample records with inhibition:
O=C1c2cc(-c3nnc(C(F)F)o3)ccc2CN1[C@H](c1ccccn1)[C@@H](O)c1ccccn1
101
O=C1c2cc(-c3nnc(C(F)F)o3)ccc2CN1[C@H](C1CC1)[C@@H](O)c1ccccn1
100
O=C1c2cc(-c3nnc(C(F)F)o3)ccc2CN1[C@H](c1cccc(F)c1)[C@@H](O)c1ccccn1 (racemic)
100
O=C1c2cc(-c3nnc(C(F)F)o3)ccc2CN1[C@H](C1CC1)[C@@H](O)c1ncccn1
96
O=C1c2cc(-c3nnc(C(F)F)o3)ccc2CN1[C@H](c1ccc(F)c(F)c1)[C@@H](O)c1ccccn1
99

Then there is this molecule:
Q: Fill in inhibition for record O=C1c2cc(-c3nnc(C(F)F)o3)ccc2CN1[C@H](C1CCC(F)(F)CC1)[C@@H](O)c1ccc(F)nc1 (racemic)
Ans: 100
